- Test system: KURAMOCHI
- protocol: drug sensitivity score (DSS2) on cancer cell count; higher = more sensitive; extreme values may be limits of the assay
- run-conditions: co-cultured fibroblast: WI38; 72 h
Kindly state drug sensitivity score for each of the entries shown.
Answer format: numeric, DSS implied, no suffix.

Observed drug sensitivity score on KURAMOCHI for Nc1cccc2c1CN(C1CCC(=O)NC1=O)C2=O (centres undefined) [Lenalidomide] , please.
2.6

Form field - read-out: drug sensitivity score; system: KURAMOCHI; submitted item: CC[C@@H]1C(=O)N(C)c2cnc(Nc3ccc(C(=O)N[C@H]4CC[C@H](N5CCN(CC6CC6)CC5)CC4)cc3OC)nc2N1C(C)C [Volasertib]
17.9

Record lookup: for KURAMOCHI, what drug sensitivity score belongs to COc1cc2c(NC3CCN(C(C)C)CC3)nc(N3CCC(F)(F)CC3)nc2cc1OCCCN1CCCC1 [UNC0642] ?
0.7

Please tell me: drug sensitivity score of CO[C@H]1C(=O)[C@]2(C)[C@@H](OC)C[C@H]3OC[C@@]3(OC(C)=O)[C@H]2[C@H](OC(=O)c2ccccc2)[C@]2(O)C[C@H](OC(=O)[C@H](O)[C@@H](NC(=O)OC(C)(C)C)c3ccccc3)C(C)=C1C2(C)C [Cabazitaxel] , system KURAMOCHI?
27.8

For the record N[C@@H]1CCCN(c2c(/C=C3\SC(=O)NC3=O)cccc2-c2ccccc2)C1 [AZD1208] , what value of drug sensitivity score is listed for KURAMOCHI?
1.7

Checklist item: drug sensitivity score tested on KURAMOCHI, entry C=CC(=O)N1CCC[C@@H](n2nc(-c3ccc(Oc4ccccc4)cc3)c3c(N)ncnc32)C1 [Ibrutinib] , value?
3

Please tell me: drug sensitivity score of COc1cc(N2CCC(N3CCN(C)CC3)CC2)ccc1Nc1ncc(Cl)c(Nc2ccccc2P(C)(C)=O)n1 [Brigatinib] , system KURAMOCHI?
0

Request: drug sensitivity score, test system KURAMOCHI, entry Nc1ncn([C@@H]2O[C@H](CO)[C@@H](O)[C@H]2O)c(=O)n1 [Azacitidine]
2.6

Request body: readout drug sensitivity score, system KURAMOCHI, query CN(C)C[C@@H]1CCn2cc(c3ccccc32)C2=C(C(=O)NC2=O)c2cn(c3ccccc23)CCO1 [Ruboxistaurin] . Return the value.
6.5

Can you look up drug sensitivity score on KURAMOCHI for NCC(=O)Nc1ccc(-n2nc(C(F)(F)F)cc2-c2ccc3c(ccc4ccccc43)c2)cc1 ?
4.1

State its drug sensitivity score on KURAMOCHI: CCN(CC)CCOc1ccc(C(=C(Cl)c2ccccc2)c2ccccc2)cc1 [Clomifene]
5.6

Lab request: please report drug sensitivity score under test system KURAMOCHI for Cc1nc(Nc2ncc(C(=O)Nc3c(C)cccc3Cl)s2)cc(N2CCN(CCO)CC2)n1 [Dasatinib]
17

What is its drug sensitivity score for KURAMOCHI? Entry: Cc1cccc(-c2nn3c(c2-c2ccnc4ccc(C(N)=O)cc24)CCC3)n1 [Galunisertib]
0

Tell me reported drug sensitivity score for NC(=O)NO [Hydroxyurea] , tested with KURAMOCHI.
7.3

###

- System: KURAMOCHI
- protocol: drug sensitivity score (DSS2) on cancer cell count; higher = more sensitive; extreme values may be limits of the assay
- run-conditions: co-cultured fibroblast: BJHTERT; 72 h
Could you label it Y if measured drug sensitivity score is 4 DSS or higher, and N otherwise?

Does the reported drug sensitivity score for O=c1ncn2nc(Sc3ccc(F)cc3F)ccc2c1-c1c(Cl)cccc1Cl fall at or above the 4 DSS mark?
Y

Item CCOc1ccccc1-n1c(C(C)N2CCN(C(=O)COc3ccc(Cl)cc3)CC2)nc2ccccc2c1=O (stereo unspecified) with drug sensitivity score of 4 DSS or above?
N

Say whether CN1CCN(c2nc(C3=C(c4c[nH]c5ccccc45)C(=O)NC3=O)c3ccccc3n2)CC1 shows drug sensitivity score of 4 DSS or more.
N

Say whether Cc1ccc(C(=O)Nc2cccc(C(F)(F)F)c2)cc1Nc1nc(-c2cccnc2)nc2c1cnn2C shows drug sensitivity score of 4 DSS or more.
Y

Has C[C@@H](Oc1ccc2[nH]nc(/C=C/c3cnn(CCO)c3)c2c1)c1c(Cl)cncc1Cl a recorded drug sensitivity score greater than or equal to 4 DSS?
Y

Confirm if drug sensitivity score reported for the molecule CCNC(=O)c1noc(-c2cc(C(C)C)c(O)cc2O)c1-c1ccc(CN2CCOCC2)cc1 is 4 DSS or above.
Y

// inclusive: drug sensitivity score at least 4 DSS? input: C=CC(=O)N1CCC(Oc2cc3c(Nc4ccc(Cl)c(Cl)c4F)ncnc3cc2OC)CC1
Y

Would you say Cc1c(C(=O)Nc2ccc(N3C[C@@H](C)O[C@@H](C)C3)nc2)cccc1-c1ccc(OC(F)(F)F)cc1 shows drug sensitivity score at minimum 4 DSS?
N

Does drug sensitivity score meet or surpass 4 DSS for O=C(O)CNC(=O)c1c(O)c2ccccc2n(Cc2ccccc2)c1=O ?
N

Does the molecule CC/C(=C(\c1ccc(O)cc1)c1ccc(OCCN(C)C)cc1)c1ccccc1 [4-hydroxytamoxifen] have recorded drug sensitivity score that is 4 DSS or more?
Y

Is drug sensitivity score for CC[C@H](CC#N)OC(=O)N[C@@H](C)c1cccc(NC(=O)Nc2ccc(-c3cnco3)c(OC)c2)c1 at or above 4 DSS?
Y

Is drug sensitivity score at least 4 DSS? Consider NC(=O)NO [Hydroxyurea]
Y

Exam item: decide whether the reported drug sensitivity score for COc1ccc(Cn2ccc3ccc(C(=O)NO)cc32)cc1 is at least 4 DSS.
Y

Dear colleague, could you confirm whether Oc1nc(-c2ccc(C(F)(F)F)cc2)nc2c1CSCC2 has drug sensitivity score at or above 4 DSS?
N

Record CCc1cnn2c(NCc3ccc[n+]([O-])c3)cc(N3CCCC[C@H]3CCO)nc12 ; criterion: drug sensitivity score no lower than 4 DSS. Met?
Y

Hi, just wondering whether CC(=O)Nc1ccc(C(=O)Nc2ccccc2N)cc1 shows drug sensitivity score of 4 DSS or higher.
N

Given the entry Cc1cc2c(C(=O)NC[C@H](C)c3ccccc3)c(O)c(O)cc2c(O)c1-c1c(C)cc2c(C(=O)NC[C@H](C)c3ccccc3)c(O)c(O)cc2c1O , answer whether its drug sensitivity score meets or surpasses 4 DSS.
N

API: above_or_equal(metric=drug sensitivity score, cutoff=4 DSS) for item NC(=O)c1cccc2cn(-c3ccc([C@@H]4CCCNC4)cc3)nc12
Y

Could you verify whether the entry COc1cc(N2CCN(C)CC2)ccc1Nc1nccc(-c2cn(C)c3cnccc23)n1 shows drug sensitivity score of no less than 4 DSS?
Y

Is drug sensitivity score for c1cn2cc(-c3ccc4cn[nH]c4c3)nc(Nc3ccc(N4CCOCC4)cc3)c2n1 at or above 4 DSS?
N

Could you tell me if the measured drug sensitivity score of CNC(=O)c1ccc(C)c(-n2c(C)cc(OCc3ccc(F)cc3F)c(Br)c2=O)c1 reaches 4 DSS or more?
N

Quick check, drug sensitivity score >= 4 DSS? CO[C@H]1C(=O)[C@]2(C)[C@@H](OC)C[C@H]3OC[C@@]3(OC(C)=O)[C@H]2[C@H](OC(=O)c2ccccc2)[C@]2(O)C[C@H](OC(=O)[C@H](O)[C@@H](NC(=O)OC(C)(C)C)c3ccccc3)C(C)=C1C2(C)C
Y

Does the molecule COc1cc2c(cc1OCCCN1CCCC1)N=C(N)C21CCC1 have recorded drug sensitivity score that is 4 DSS or more?
N

Does drug sensitivity score meet or surpass 4 DSS for CN(C)C1CCN(C(=O)c2ccc(NC(=O)Nc3ccc(-c4nc(N5CCOCC5)nc(N5CCOCC5)n4)cc3)cc2)CC1 ?
Y

Record CCCC(CCC)C(=O)O ; criterion: drug sensitivity score no lower than 4 DSS. Met?
N

hey, is drug sensitivity score for this one >= 4 DSS? CO[C@H]1C[C@@H]2CC[C@@H](C)[C@@](O)(O2)C(=O)C(=O)N2CCCC[C@H]2C(=O)O[C@H]([C@H](C)C[C@@H]2CC[C@@H](OC(=O)C(C)(CO)CO)[C@H](OC)C2)CC(=O)[C@H](C)/C=C(\C)[C@@H](O)[C@@H](OC)C(=O)[C@H](C)C[C@H](C)/C=C/C=C/C=C/1C
Y
